For each entry below, report its Papp at 5 h, 200 μmol/L value.
- assay-method-text: Parallel Artificial Membrane Permeation Assay (PAMPA), Pre-coated PAMPA Plate System (Corning)
Where a name gives a salt, the structure may show the parent alone.
Record the value in ×10⁻⁶ cm/s, omitting the unit from your answer.

The recorded Papp at 5 h, 200 μmol/L for entry CC[C@H](C)[C@@H]([C@@H](CC(=O)N1CCC[C@H]1[C@H](OC)[C@@H](C)C(=O)N[C@@H](Cc1ccccc1)c1nc(C(=O)OCCN)cs1)OC)N(C)C(=O)[C@@H](NC(=O)[C@H](C(C)C)N(C)C)C(C)C equals 0.01

The measured Papp at 5 h, 200 μmol/L associated with CC[C@H](C)[C@@H]([C@@H](CC(=O)N1CCC[C@H]1[C@H](OC)[C@@H](C)C(=O)N[C@@H](Cc1ccccc1)c1nc(C(=O)OCCS)cs1)OC)N(C)C(=O)[C@@H](NC(=O)[C@H](C(C)C)N(C)C)C(C)C reads 0.005

Lab note: CC[C@H](C)[C@@H]([C@@H](CC(=O)N1CCC[C@H]1[C@H](OC)[C@@H](C)C(=O)N[C@@H](Cc1ccccc1)c1nc(C(=O)NCCNC)cs1)OC)N(C)C(=O)[C@@H](NC(=O)[C@H](C(C)C)N(C)C)C(C)C [Reference Example 14, dihydrochloride, reference compound] gave Papp at 5 h, 200 μmol/L of 0.004

Recorded result, CC[C@H](C)[C@@H]([C@@H](CC(=O)N1CCC[C@H]1[C@H](OC)[C@@H](C)C(=O)N[C@@H](Cc1ccccc1)c1nc(C(=O)N(C)CCS)cs1)OC)N(C)C(=O)[C@@H](NC(=O)[C@H](C(C)C)N(C)C)C(C)C , Papp at 5 h, 200 μmol/L: 1.14
